Measured values drawn from patent US20090318491A1 for this set.

I'd appreciate it if you could supply Ki values for the items below.
Target Under Test: α3β4* nAChR (Bos taurus, UniProt Q07263+Q8SPU6)
Construct: 100 μL of the calf adrenal membrane protein fraction (60-70 μg)
Sequence (Q07263 22-495): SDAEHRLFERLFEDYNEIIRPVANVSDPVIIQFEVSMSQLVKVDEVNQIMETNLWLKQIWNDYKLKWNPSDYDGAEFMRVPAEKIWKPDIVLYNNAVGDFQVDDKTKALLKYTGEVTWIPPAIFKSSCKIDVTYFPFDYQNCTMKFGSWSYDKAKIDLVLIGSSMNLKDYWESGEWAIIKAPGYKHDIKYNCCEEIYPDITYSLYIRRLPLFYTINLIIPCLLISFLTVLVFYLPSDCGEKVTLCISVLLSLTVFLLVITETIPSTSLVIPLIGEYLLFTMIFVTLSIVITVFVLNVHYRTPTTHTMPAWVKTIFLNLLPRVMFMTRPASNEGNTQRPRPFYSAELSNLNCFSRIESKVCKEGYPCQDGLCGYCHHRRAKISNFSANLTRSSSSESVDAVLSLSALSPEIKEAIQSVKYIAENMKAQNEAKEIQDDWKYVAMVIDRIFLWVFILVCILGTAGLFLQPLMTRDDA
Sequence (Q8SPU6 20-496): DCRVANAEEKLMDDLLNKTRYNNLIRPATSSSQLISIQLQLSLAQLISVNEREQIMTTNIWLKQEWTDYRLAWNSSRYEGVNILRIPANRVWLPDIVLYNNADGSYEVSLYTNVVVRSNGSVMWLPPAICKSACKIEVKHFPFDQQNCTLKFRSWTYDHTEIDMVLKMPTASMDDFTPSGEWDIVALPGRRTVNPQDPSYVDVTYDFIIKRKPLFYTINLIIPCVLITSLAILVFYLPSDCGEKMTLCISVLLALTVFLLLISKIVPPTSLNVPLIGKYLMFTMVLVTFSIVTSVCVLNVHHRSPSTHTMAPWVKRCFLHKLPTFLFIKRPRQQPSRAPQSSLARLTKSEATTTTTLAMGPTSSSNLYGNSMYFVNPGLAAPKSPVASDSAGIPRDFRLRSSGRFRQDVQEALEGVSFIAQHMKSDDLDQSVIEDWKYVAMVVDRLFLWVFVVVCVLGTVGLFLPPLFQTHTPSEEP
Test Protocol: biochemical

Enquiry: Form entry - test system: α3β4* nAChR (Bos taurus, UniProt Q07263+Q8SPU6); read-out: Ki; compound: O=c1c(-c2ccccc2)ccc2n1C[C@@H]1CNC[C@H]2C1 [93e, 3-Phenyl-cytisine]
Return: > 10 µM

Enquiry: Form entry - test system: α3β4* nAChR (Bos taurus, UniProt Q07263+Q8SPU6); read-out: Ki; compound: O=c1ccc(-c2cccnc2)c2n1C[C@@H]1CNC[C@H]2C1 [125e, 5-(Pyridin-3′-yl)-cytisine]
Return: 4.3 µM

Enquiry: Form entry - test system: α3β4* nAChR (Bos taurus, UniProt Q07263+Q8SPU6); read-out: Ki; compound: Cc1cccc(-c2ccc(=O)n3c2[C@H]2CNC[C@H](C2)C3)c1 [105e, 5-(3′-Methyl-phenyl)-cytisine]
Return: > 10 µM

Enquiry: Form entry - test system: α3β4* nAChR (Bos taurus, UniProt Q07263+Q8SPU6); read-out: Ki; compound: O=c1c(-c2cccc(OC(F)(F)F)c2)ccc2n1C[C@@H]1CNC[C@H]2C1 [97e, 3-(3′-Trifluoromethoxy-phenyl)-cytisine]
Return: > 10 µM

Enquiry: Form entry - test system: α3β4* nAChR (Bos taurus, UniProt Q07263+Q8SPU6); read-out: Ki; compound: O=c1ccc(-c2ccccc2)c2n1C[C@@H]1CNC[C@H]2C1 [103e, 5-Phenyl-cytisine]
Return: > 10 µM

Enquiry: Form entry - test system: α3β4* nAChR (Bos taurus, UniProt Q07263+Q8SPU6); read-out: Ki; compound: Cn1cc(-c2ccc(=O)n3c2[C@H]2CNC[C@H](C2)C3)cn1 [126e, 5-(1-Methyl-1H-pyrazol-4′-yl)-cytisine]
Return: 0.656 µM

Enquiry: Form entry - test system: α3β4* nAChR (Bos taurus, UniProt Q07263+Q8SPU6); read-out: Ki; compound: O=c1c(-c2ccc3[nH]ccc3c2)ccc2n1C[C@@H]1CNC[C@H]2C1 [117e, 3-(1H-Indol-5′-yl)-cytisine]
Return: > 10 µM

Enquiry: Form entry - test system: α3β4* nAChR (Bos taurus, UniProt Q07263+Q8SPU6); read-out: Ki; compound: O=c1ccc(-c2cccc(OC(F)(F)F)c2)c2n1C[C@@H]1CNC[C@H]2C1 [107e, 5-(3′-Trifluoromethoxy-phenyl)-cytisine]
Return: > 10 µM

Enquiry: Form entry - test system: α3β4* nAChR (Bos taurus, UniProt Q07263+Q8SPU6); read-out: Ki; compound: O=c1ccc(-c2cccc(C(F)(F)F)c2)c2n1C[C@@H]1CNC[C@H]2C1 [106e, 5-(3′-Trifluoromethyl-phenyl)-cytisine]
Return: > 10 µM

Enquiry: Form entry - test system: α3β4* nAChR (Bos taurus, UniProt Q07263+Q8SPU6); read-out: Ki; compound: O=c1c(-c2cccc3cccnc23)ccc2n1C[C@@H]1CNC[C@H]2C1 [121e, 3-Quinolin-8′-yl-cytisine]
Return: > 10 µM

Enquiry: Form entry - test system: α3β4* nAChR (Bos taurus, UniProt Q07263+Q8SPU6); read-out: Ki; compound: O=c1ccc(-c2ccc3[nH]ccc3c2)c2n1C[C@@H]1CNC[C@H]2C1 [123e, (1H-Indol-5′-yl)-cytisine]
Return: > 10 µM

Enquiry: Form entry - test system: α3β4* nAChR (Bos taurus, UniProt Q07263+Q8SPU6); read-out: Ki; compound: Cn1cc(-c2ccc3n(c2=O)CC2CNCC3C2)cn1 (stereo not drawn) [122e, 3-(1-Methyl-1H-pyrazol-4′-yl)-cytisine]
Return: 0.033 µM

Enquiry: Form entry - test system: α3β4* nAChR (Bos taurus, UniProt Q07263+Q8SPU6); read-out: Ki; compound: O=c1c(-c2cccc(F)c2)ccc2n1C[C@@H]1CNC[C@H]2C1 [99e, 3-(3′-Fluoro-phenyl)-cytisine]
Return: 1.2 µM

Enquiry: Form entry - test system: α3β4* nAChR (Bos taurus, UniProt Q07263+Q8SPU6); read-out: Ki; compound: Cc1cccc(-c2ccc3n(c2=O)C[C@@H]2CNC[C@H]3C2)c1 [95e, 3-(3′-Methyl-phenyl)-cytisine]
Return: > 10 µM

Enquiry: Form entry - test system: α3β4* nAChR (Bos taurus, UniProt Q07263+Q8SPU6); read-out: Ki; compound: `O=c1cccc2n1C[C@@H]1CNC[C@H]2C1`
Return: 0.019 µM
